# System: EKVX
# TEST_SUMMARY: NCI tumour cell line growth inhibition, 48 h
Active and inactive are the calls of the source. No stated cut-off is given here; in the data, active = GI50 up to about 1.1 µM and inactive = higher. Non-standard residues stand in square brackets, D forms with d. Residues, ends and D or L forms follow the SMILES beside them. Ava = NCCCCC(=O)O; Mpa = O=C(O)CCS
REPORTED_ENDPOINT: GI50

Here's what some known entries look like.
MOLECULE	GI50
C[C@H](CS)C(=O)N1c2ccccc2C[C@H]1C(=O)O	> 100 µM (inactive)
CS/C(=N/S(=O)(=O)c1ccc(Cl)cc1)NCCCN/C(=N\S(=O)(=O)c1ccc(Cl)cc1)SC	12.7 µM (inactive)
O=C(CCc1nnc2s/c(=C\c3ccc(Cl)cc3Cl)c(=O)n12)Nc1cc(Cl)c(Cl)cc1Cl	> 10 µM (inactive)
Cc1ncc([N+](=O)[O-])n1CCNC(=O)CCCn1ccnc1[N+](=O)[O-]	> 100 µM (inactive)
CCOC(=O)C(CCCNC(=O)OC(C)(C)C)N(Cc1ccc(OC)cc1OC)C(=O)CC(=O)CP(=O)(OCC)OCC (configuration not stated)	> 100 µM (inactive)

Go through the items and report each one's GI50.
1. CCCCCCOc1ccc(NC2=C(Cl)C(=O)c3ncccc3C2=O)cc1
2. CNC(=O)N(CCC#N)CCN(C(=O)N(C)C)c1ccccc1

1. > 10 µM (inactive)
2. > 100 µM (inactive)

Go through the items and report each one's GI50.
1. CCOc1ccc(NC(=O)CC2SC(Nc3ccc(Cl)cc3)=NC2=O)cc1 (configuration not stated)
2. Cc1cc(Cc2c(F)c(F)c(Cc3cc(C)no3)c(F)c2F)on1
3. O=C1CC(NC(=O)C(F)(F)F)c2c(Br)sc(N3CCNCC3)c21 (configuration not stated)

1. > 100 µM (inactive)
2. > 100 µM (inactive)
3. > 100 µM (inactive)

Go through the items and report each one's GI50.
1. O=S(=O)(N1CCCCN(S(=O)(=O)C(F)(F)F)CCCN(S(=O)(=O)C(F)(F)F)CCCN(S(=O)(=O)C(F)(F)F)CCCCN(S(=O)(=O)C(F)(F)F)CCCN(S(=O)(=O)C(F)(F)F)CCC1)C(F)(F)F
2. CC(NC(=O)CCS)C(=O)NC(C)C(=O)NC(Cc1c[nH]c2ccccc12)C(=O)NC(Cc1c[nH]cn1)C(=O)NC(CO)C(=O)NC(Cc1c[nH]c2ccccc12)C(=O)NCCCCC(=O)NC(C)C(=O)NC(CCC(N)=O)C(=O)NC(CCCCN)C(=O)NC(C)C(=O)NC(CCCNC(=N)N)C(=O)NC(CCCCN)C(N)=O (configuration not stated) ([Mpa]AAWHSW[Ava]AQKARK-NH2; configuration not given here)
3. C=CCNC(=O)/C(Cc1cc(Br)c(OC)c(Br)c1O)=N\O
4. Oc1[nH]c(Nc2cc(Cl)cc(Cl)c2)nc2ncnc1-2
5. COc1cc2c[n+](C)c3c4cc(OC)c(OC)cc4ccc3c2cc1OC
6. COC1=CC(=O)c2c(cc(COP(N)(=O)N(CCCl)CCCl)n2C)C1=O (configuration not stated)
7. CC(C)CC(=O)NC(NC(C)C)(C(F)(F)F)C(F)(F)F

1: 72.3 µM (inactive); 2: > 100 µM (inactive); 3: 3.81 µM (inactive); 4: > 75 µM (inactive); 5: > 63 µM (inactive); 6: 0.676 µM (active); 7: > 100 µM (inactive)
